The variants listed here are annotated with their protein stability index.
B1: EPB41L3 (parent)
chain: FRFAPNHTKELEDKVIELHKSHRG

variants of: B1; experiment: protein stability index of a GFP-peptide fusion (GPS, HEK-293T) (PSI 1-6); higher = more stable; details: c terminus: a fixed tail appended;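 further: lentivirally expressed fusions sorted by FACS into six bins by GFP to DsRed ratio, PSI derived from sequencing read proportions per bin multiplied by bin number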
Just the number, please, no unit attached.

[[record]]
mut = "V15M"
reading = 2.87

[[record]]
mut = "V15K"
reading = 2.19

[[record]]
mut = "T8F"
reading = 2.3

[[record]]
mut = "V15A"
reading = 2.38

[[record]]
mut = "K14T"
reading = 2.31


Moving on to another variant below.
Task: Consider the variant shown here: H19M What is its recorded protein stability index?
Output: 2.05
